Measured values drawn from patent US4202876A for this set.

- Protocol description: Whole-body excretion studies in rats after oral administration (whole-body counts, bi-exponential fit)
- Type: in vivo, rat
- Particulars: Retention(t)=ae^-xt+be^-yt+c
Catalogue of compounds with associated c (constant; percentage predicted as never being excreted)
Returns: string containing the numeric result and its unit.

Examples from the recorded data:
>  <Compound>
C[C@H](CC[75Se]CCC(=O)O)[C@H]1CC[C@H]2[C@@H]3[C@H](O)C[C@@H]4C[C@H](O)CC[C@]4(C)[C@H]3CC[C@]12C

>  <Experimental result>
4.0%

$$$$
>  <Compound>
C[C@H](CCC[75Se]CC(=O)O)[C@H]1CC[C@H]2[C@@H]3CC[C@@H]4C[C@H](O)CC[C@]4(C)[C@H]3CC[C@]12C

>  <Experimental result>
2.85%

$$$$
>  <Compound>
CC([75Se]CC(=O)O)[C@H]1CC[C@H]2[C@@H]3[C@H](O)C[C@@H]4C[C@H](O)CC[C@]4(C)[C@H]3C[C@H](O)[C@]12C (stereo partly shown)

>  <Experimental result>
0.8%

$$$$
>  <Compound>
C[C@H](C[75Se]CC(=O)O)[C@H]1CC[C@H]2[C@@H]3CC[C@@H]4C[C@H](O)CC[C@]4(C)[C@H]3C[C@H](O)[C@]12C

>  <Experimental result>
3.36%

$$$$
>  <Compound>
CC([75Se]CC(=O)NCC(=O)O)[C@H]1CC[C@H]2[C@@H]3[C@H](O)C[C@@H]4C[C@H](O)CC[C@]4(C)[C@H]3C[C@H](O)[C@]12C (stereo partly shown) [vi, Glyco-22-[^75 Se]selenacholic acid]

>  <Experimental result>
0.58%

$$$$
>  <Compound>
C[C@H](CC[123Te]CC(=O)O)[C@H]1CC[C@H]2[C@@H]3CC[C@@H]4C[C@H](O)CC[C@]4(C)[C@H]3C[C@H](O)[C@]12C

>  <Experimental result>
1.3%

$$$$

Next, consider the following compound.
# input In one line, give reported c (constant; percentage predicted as never being excreted) of the entry C[C@H](CC[75Se]CCC(=O)O)[C@H]1CC[C@H]2[C@@H]3[C@H](O)C[C@@H]4C[C@H](O)CC[C@]4(C)[C@H]3C[C@H](O)[C@]12C .
# output 15.5%
